Target: human PPARα receptor (Homo sapiens)
Construct: and; expressed in transfected cells; host or cells: CV-1 cells, pSG5-based Gal4-PPAR expression vector
Sequence (Q07869 167-468): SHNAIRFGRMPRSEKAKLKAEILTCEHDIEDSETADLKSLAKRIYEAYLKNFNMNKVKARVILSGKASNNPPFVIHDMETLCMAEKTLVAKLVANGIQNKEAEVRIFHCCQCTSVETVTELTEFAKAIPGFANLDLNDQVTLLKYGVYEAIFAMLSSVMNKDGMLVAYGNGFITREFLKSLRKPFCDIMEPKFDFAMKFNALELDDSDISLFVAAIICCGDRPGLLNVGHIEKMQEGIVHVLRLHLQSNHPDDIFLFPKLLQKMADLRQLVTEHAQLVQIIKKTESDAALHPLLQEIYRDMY
Test: Luciferase assay using human PPARα receptor (Gal4 chimera, CV-1 cells)
Type: cell-based
Conditions: 24 h, 10 μM, luciferase activity of Wy-14.643 at 10 μM = 100, read-out: PPARα agonist activity, Relative activity
Would you mind classing the entries by Emax at 10 µM? Ranges: L (below 0.2%), M (0.2% to below 0.7%), H (0.7% or more)

INSERT INTO measurements (compound, assay_system, group) VALUES
  ('COc1cc2cc(CC(C)(Oc3ccc(C#N)cc3)C(N)=O)sc2cc1OC (stereo not shown)', 'human PPARα receptor (Homo sapiens)', 'L');

Inquiry: # bin label for CC(Cc1cc2ccccc2s1)(C(=O)O)C(=O)NC1CCCCC1 (stereo not shown)
Reply text: H

Inquiry: # bin label for CCCCNC(=O)C(C)(Cc1cc2cc(OC)c(OC)cc2s1)Oc1ccc(C#N)cc1 (stereo not shown)
Reply text: L

// provenance: patent US20030109570A1
